ASSAY SYSTEM: Human immunodeficiency virus type 1 reverse transcriptase (Human immunodeficiency virus 1)
pIC50: −log10 of the molar value.
pIC50 of 6 or higher: YES. Under 6: NO.

Item Oc1cc(Cc2c(Cl)cccc2Cl)nc(SC2CCCCC2)n1 with pIC50 of 6 or above?
YES

Evaluate CCC(C)Sc1nc(O)cc(Cc2ccc(F)cc2)n1 (stereo not drawn) : pIC50 at minimum 6?
NO

Can CCC(C)Sc1nc(O)cc(Cc2ccccc2F)n1 (stereo not drawn) be said to have pIC50 at or above 6?
YES

Test whether the compound CC(C)CSc1nc(O)cc(Cc2c(F)cccc2F)n1 records pIC50 of 6 or higher.
YES

Check if pIC50 >= 6 (inclusive). Item: CC(C)CSc1nc(O)cc(Cc2c(Cl)cccc2Cl)n1
YES

# bool: pIC50 of CCC(C)Sc1nc(O)cc(Cc2cccc([N+](=O)[O-])c2)n1 (stereo not drawn) >= 6
YES

Test whether the compound CCC(C)Sc1nc(O)c(C)c(Cc2ccc(Cl)cc2)n1 (stereo not drawn) records pIC50 of 6 or higher.
NO

Test whether the compound CCC(C)Sc1nc(O)c(C)c(Cc2cccc([N+](=O)[O-])c2)n1 (stereo not drawn) records pIC50 of 6 or higher.
YES

Test whether the compound Cc1c(O)nc(SC2CCCC2)nc1Cc1ccccc1 records pIC50 of 6 or higher.
YES

Textbook exercise: given the entry CCC(C)Sc1nc(O)c(C)c(Cc2ccc([N+](=O)[O-])cc2)n1 (stereo not drawn) , state whether its pIC50 is greater than or equal to 6.
NO

----------
ASSAY SYSTEM: Human immunodeficiency virus type 1 reverse transcriptase (Human immunodeficiency virus 1, UniProt Q72547)
Listed next: entries and their corresponding pIC50.
Bear in mind: pIC50 is minus log10 of a mol/L concentration; give just that figure.

Recorded pIC50 for Cc1c(O)nc(SCC(C)C)nc1Cc1c(Cl)cccc1Cl , please?
5.96

Given the entry CCC(C)Sc1nc(O)c(C)c(Cc2cccc(Cl)c2)n1 (stereo not drawn) , report its measured pIC50.
6.05

Recorded pIC50 for CCC(C)Sc1nc(O)cc(Cc2ccc([N+](=O)[O-])cc2)n1 (stereo not drawn) , please?
5.92

All figures here come from ChEMBL document CHEMBL1132584.
